Assay: NCI Yeast Anticancer Drug Screen. Data for the mec2-1 strain (AID 157)
Conditions: S. cerevisiae mec2-1 strain, at 50.0 µM, hits give high values
About 79,000 compounds went through this panel and 15% of them were active in at least one assay; those are over-represented in the sample as a whole.
Label rule, in plain words: growth inhibition of 70% and up is y, under 70% is n.

See these solved cases before continuing.
>  <smiles_string>
CCC[CH2][Sn]1([CH2]CCC)[O]C(=O)CN=Cc2c(ccc3ccccc23)[O]1

>  <class_name>
y

$$$$
>  <smiles_string>
CCC(=O)/C(=C\I)c1ccccc1

>  <class_name>
y

$$$$
>  <smiles_string>
CCC/C(=N\NC(=S)N1CCCCCC1)c1ccccn1

>  <class_name>
y

$$$$
>  <smiles_string>
Cc1cc(I)cc(I)c1O

>  <class_name>
y

$$$$
>  <smiles_string>
CC(C)OC(=O)c1cc([N+](=O)[O-])cc([N+](=O)[O-])c1Sc1ncnc2nc[nH]c12

>  <class_name>
n

$$$$

# ---- query compound ----
Test whether the compound `O=C1NC(=O)N(c2ccc(Cl)c(Cl)c2)C1=O` records growth inhibition of 70% or higher.
n

###

Assay: NCI Yeast Anticancer Drug Screen. Data for the mec2-1 strain (AID 157)
Conditions: S. cerevisiae mec2-1 strain, at 50.0 µM, hits give high values
The panel holds about 79,000 compounds, 15% with a hit somewhere; the sample as a whole holds those more often.
quantity: growth inhibition (%)
Numeric only. Scale: %

>  <compound>
COc1cc(/C=C(\C#N)c2ccc([N+](=O)[O-])cc2)ccc1O

>  <measured_number>
51.2

$$$$

The reported value for `CC[n+]1c(/C=C/c2cc(C(=O)OC)n3c2sc2ccccc23)sc2ccccc21` in terms of growth inhibition is 99.2

Documented growth inhibition of COc1ccc(C(SCC(N)C(=O)O)(c2ccc(OC)cc2)c2ccc(OC)cc2)cc1 (stereo not given) : 96.3

Per the records, this compound ( `NC(=O)c1nnn(Cc2cc(Cl)c(C(=O)c3ccc(Cl)cc3)c(Cl)c2)c1N` ) has growth inhibition equal to 98.9

compound Cc1ccnc(NC(c2ccccc2)c2ccc3cccnc3c2O)c1 (stereo not given) , growth inhibition observed: 96.3

###

Examples of compounds with documented growth inhibition follow.
Assay: NCI Yeast Anticancer Drug Screen. Data for the mec2-1 strain (AID 157)
Conditions: S. cerevisiae mec2-1 strain, at 5.0 µM (retest, dose inferred, filed as 0.5), hits give high values
About 79,000 compounds went through this panel and 15% of them were active in at least one assay; those are over-represented in the sample as a whole. Calls of active or inactive are those of the source. No stated cut-off is given here; in the data, active means growth inhibition above about 70%; inactive means the rest.

Worked cases, answers included:
>  <compound>
O=C1c2ccccc2NC(=O)C2C1C(c1ccccc1)CC2(O)c1ccccc1 (stereo not given)

>  <growth inhibition>
7% (inactive)

$$$$
>  <compound>
CCOc1c(N=Nc2ccccc2OC)c(C)nn1C(N)=S

>  <growth inhibition>
-10% (inactive)

$$$$
>  <compound>
COC(=O)[C@@]12OC[C@]34[C@H]([C@@H](O)[C@@H]1O)[C@@]1(C)[C@H](O)C(=O)C=C(C)[C@@H]1C[C@H]3OC(=O)C(OC(C)=O)[C@@H]24 (stereo not given in full)

>  <growth inhibition>
35% (inactive)

$$$$

Please look at the following compound next.
So for `CC(=O)N(c1ccccc1)c1nc2ccccc2s1` , the logged growth inhibition turned out to be -4% (inactive)

###

growth inhibition: recorded values
Test: NCI Yeast Anticancer Drug Screen. Data for the sgs1 mgt1 strain (AID 161);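 also: 0% = growth of cultures given vehicle only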
Details: S. cerevisiae sgs1 mgt1 strain, at 50.0 µM (retest, dose inferred, filed as 5.0), hits give high values
The panel holds about 79,000 compounds, 15% with a hit somewhere; the sample as a whole holds those more often.
Give just the number in %; leave the unit off.

>  <smiles_string>
O=C1c2ccccc2C(c2ccccc2)(c2ccccc2)N1c1ccccc1

>  <endpoint_unit>
%

>  <growth inhibition>
90

$$$$
>  <smiles_string>
Cc1nc(-n2nc(-c3ccccc3)cc2-c2ccccc2)sc1C(/C=C\c1ccc([N+](=O)[O-])cc1)=N/NC(=S)NN

>  <endpoint_unit>
%

>  <growth inhibition>
91

$$$$
>  <smiles_string>
CC(C)(C)C(=O)CC(=O)C(F)(F)C(F)(F)C(F)(F)F.CC(C)(C)C(=O)CC(=O)C(F)(F)C(F)(F)C(F)(F)F.CC(C)(C)C(=O)CC(=O)C(F)(F)C(F)(F)C(F)(F)F.[Fe]

>  <endpoint_unit>
%

>  <growth inhibition>
88

$$$$

The measured growth inhibition associated with `CC(=O)O[C@]1(C(C)=O)CC[C@H]2[C@@H]3C[C@H](C)C4=CC(=O)NCC[C@]4(C)[C@H]3CC[C@@]21C` reads 90

###

Experiment: NCI Yeast Anticancer Drug Screen. Data for the sgs1 mgt1 strain (AID 161);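 also: 0% = growth of cultures given vehicle only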
Conditions: S. cerevisiae sgs1 mgt1 strain, at 50.0 µM (retest, dose inferred, filed as 5.0), hits give high values
This is part of a sample that, as a whole, favours compounds with a hit. Of some 79,000 tested, about 15% had one in any assay.
Use 80% as the dividing line for growth inhibition, with the line itself on the y side and lower values as n.

>  <molecule>
CCCCCCCCCCCCCC(=O)OCC(O)CO (stereo not drawn)

>  <class_name>
n

$$$$
>  <molecule>
O=C(O)c1ccccc1Cc1ccc2c(c1)Cc1ccccc1-2

>  <class_name>
y

$$$$
>  <molecule>
CN(C)CC1CC/C(=C\c2ccc(O)cc2)C1=O (stereo not drawn)

>  <class_name>
y

$$$$
>  <molecule>
Cc1c(N)cc(I)cc1[N+](=O)[O-]

>  <class_name>
n

$$$$
>  <molecule>
Nc1nc(-c2ccccc2)c(-c2ccccc2)c(-c2nc(N)nc(-c3ccccc3)c2-c2ccccc2)n1

>  <class_name>
n

$$$$
>  <molecule>
COc1cc(C(=O)NC(CCC(=O)O)C(=O)O)ccc1N(C)Cc1cnc2nc(N)nc(N)c2n1 (stereo not drawn)

>  <class_name>
n

$$$$
>  <molecule>
Cc1ccc(NC(=O)c2cc3ccccc3c(N=Nc3cc(S(=O)(=O)O)ccc3O)c2O)c(C)c1

>  <class_name>
y

$$$$
>  <molecule>
COc1ccc(N=N/N=c2\sc3cc(OC)ccc3n2C)cc1

>  <class_name>
n

$$$$
>  <molecule>
OCCCNc1nc2ccc(Cl)cc2c2ccccc12

>  <class_name>
n

$$$$
>  <molecule>
COc1ccc(OC)c(C(Cc2ccnc3ccccc23)Cc2ccnc3ccccc23)c1

>  <class_name>
y

$$$$

Confirm if growth inhibition reported for the molecule `O=[N+]([O-])c1cc2cccnc2c2ncccc12` is 80% or above.
n

Does growth inhibition meet or surpass 80% for `CC(C)OC(=O)c1cc([N+](=O)[O-])cc([N+](=O)[O-])c1Sc1ncnc2nc[nH]c12` ?
y

Quick check, growth inhibition >= 80%? `COC(=O)c1[nH]c(=O)c(C#N)c(C(=O)OC)c1C(=O)c1ccc(Cl)c(Cl)c1`
n

Is it the case that `CCOC(=O)C(C(=O)OCC)C(=O)c1ccccc1C(=O)c1ccccc1` has growth inhibition reaching or exceeding 80%?
n

Quick check: does `CC1(C)CC([P+](c2ccccc2)(c2ccccc2)c2ccccc2)=NN1` have growth inhibition greater than or equal to 80%?
y

Hello, I need to know if `O=Cc1cc(S(=O)(=O)c2ccc(O)c(C=O)c2)ccc1O` has measured growth inhibition not below 80%. Thanks!
n

State whether the measured growth inhibition reaches 80%, counting equality as reaching it, for `COc1ccc2c(c1)CCC1=C2C=C[P+]1(C)C`
y

Textbook exercise: given the entry CCOC(=O)C(Br)C(Br)c1cccc([N+](=O)[O-])c1 (stereo not drawn) , state whether its growth inhibition is greater than or equal to 80%.
y

Does growth inhibition meet or surpass 80% for `CCN(CC)Cc1cc(N=Nc2c(O)ccc3c(N=Nc4ccc(O)c(CN(CC)CC)c4)c(O)ccc23)ccc1O` ?
n

Assess whether reported growth inhibition for Cc1c(C2CC(=O)NC2=O)c2ccccc2n1C (stereo not drawn) sits at 80% or higher.
n

Dear colleague, could you confirm whether CCN(CC)CCCC(Nc1c2ccc(Cl)cc2nc2ccc(OC)cc12)c1cccs1 (stereo not drawn) has growth inhibition at or above 80%?
n

growth inhibition >= 80% for `O=[N+]([O-])c1cc(Cl)c(Cl)cc1NS(=O)(=O)c1ccccc1` ?
n

###

Experiment: NCI Yeast Anticancer Drug Screen. Data for the bub3 strain (AID 167)
Conditions: S. cerevisiae bub3 mutant strain, at 50.0 µM (retest, dose inferred, filed as 5.0)
Compounds without any hit were thinned out: in the full panel of roughly 79,000, 15% have a hit. Active and inactive are the calls of the source. No stated cut-off is given here; in the data, active means growth inhibition above about 70%; inactive means the rest.
Mark one answer only. Choices: 1 (active), 0 (inactive)

>  <molecule>
CCCCCCCN(CCCCCCC)CC(O)c1ccc2ccc3ccccc3c2c1 (stereo not given)

>  <class_name>
1

$$$$

Check the results log: what was the call for `Nc1c(O)c(Cl)cc(Cl)c1Cl` ?
1

Hey, what did the test say about Cc1ccc(C)c(NC(=O)CC2SC(=Nc3ccccc3Cl)NC2=O)c1 (stereo not given) ?
1

So what was the verdict on `O=C1c2ccccc2-c2ccccc2C(=O)C1(Br)Br` in this test?
0

Would you mind telling me which call this test gave `Cc1ccc(C)c(N2C(=O)C(=O)C(c3nc4ccccc4o3)C(=O)C2=O)c1` ?
1
